Attribution: patent US20250064766A1

- measurement-notes: physchem
- run-conditions: 16.7 °C, water, thermodynamic from solid

{"molecule": "NC(=O)NCCC[C@H](N)C(=O)O [L-Citrulline, L-citrulline, reference compound]", "solubility at 2 min": "49.8 mg/mL"}
